target: BChE (Equine) (Equus caballus); construct: purchased Sigma-Aldrich (Steinheim, Germany); experiment: biochemical; format: biochemical; details: 10^-8 M
Sequence (P81908 whole entry): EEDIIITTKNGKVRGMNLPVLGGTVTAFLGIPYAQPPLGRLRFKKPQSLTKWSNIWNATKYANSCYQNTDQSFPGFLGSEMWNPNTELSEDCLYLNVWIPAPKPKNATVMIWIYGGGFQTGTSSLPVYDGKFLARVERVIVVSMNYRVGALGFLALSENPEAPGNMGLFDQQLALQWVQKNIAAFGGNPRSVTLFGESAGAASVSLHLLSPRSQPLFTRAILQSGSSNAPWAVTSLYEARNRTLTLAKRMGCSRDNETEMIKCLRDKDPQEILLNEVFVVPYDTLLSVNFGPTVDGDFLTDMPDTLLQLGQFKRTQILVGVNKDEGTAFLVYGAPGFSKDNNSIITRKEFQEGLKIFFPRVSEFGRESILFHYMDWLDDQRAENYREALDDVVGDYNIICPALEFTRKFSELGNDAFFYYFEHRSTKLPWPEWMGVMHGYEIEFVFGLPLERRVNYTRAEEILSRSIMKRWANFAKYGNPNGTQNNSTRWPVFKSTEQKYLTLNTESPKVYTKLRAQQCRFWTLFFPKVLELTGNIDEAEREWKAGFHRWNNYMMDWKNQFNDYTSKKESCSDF
Kind request: treat 30% as inclusive, so BChE (Equine) inhibitory activity (%) ± SD at 30% or higher is criterion met, anything lower is criterion not met.

{"columns": ["item_smiles", "class_assignment"],
 "data": [
  ["O=C(CSC(=S)N1CCN(CCO)CC1)Nc1c2ccccc2nc2ccccc12", "criterion not met"]
]}

State whether the measured BChE (Equine) inhibitory activity (%) ± SD reaches 30%, counting equality as reaching it, for CN(C)CCN1CCN(C(=S)SCC(=O)Nc2c3ccccc3nc3ccccc23)CC1
criterion not met

State whether the measured BChE (Equine) inhibitory activity (%) ± SD reaches 30%, counting equality as reaching it, for Cc1ccc(CN2CCN(C(=S)SCC(=O)Nc3c4ccccc4nc4ccccc34)CC2)cc1
criterion not met

State whether the measured BChE (Equine) inhibitory activity (%) ± SD reaches 30%, counting equality as reaching it, for O=C(CSC(=S)N1CCN(c2ccc(Cl)cc2)CC1)Nc1c2ccccc2nc2ccccc12
criterion not met

State whether the measured BChE (Equine) inhibitory activity (%) ± SD reaches 30%, counting equality as reaching it, for CN(C)CCCN1CCN(C(=S)SCC(=O)Nc2c3ccccc3nc3ccccc23)CC1
criterion met

====

Task for the reader: assign each of the following compounds its reported AChE (Electrophorus electricus) inhibitory activity (%) ± SD.
biological target: AChE (Electrophorus electricus) (Electrophorus electricus); construct: purchased Sigma-Aldrich (Steinheim, Germany); assay: AChE inhibition, Ellman's method; format: biochemical; conditions: 10^-3 M
Sequence (O42275 24-633): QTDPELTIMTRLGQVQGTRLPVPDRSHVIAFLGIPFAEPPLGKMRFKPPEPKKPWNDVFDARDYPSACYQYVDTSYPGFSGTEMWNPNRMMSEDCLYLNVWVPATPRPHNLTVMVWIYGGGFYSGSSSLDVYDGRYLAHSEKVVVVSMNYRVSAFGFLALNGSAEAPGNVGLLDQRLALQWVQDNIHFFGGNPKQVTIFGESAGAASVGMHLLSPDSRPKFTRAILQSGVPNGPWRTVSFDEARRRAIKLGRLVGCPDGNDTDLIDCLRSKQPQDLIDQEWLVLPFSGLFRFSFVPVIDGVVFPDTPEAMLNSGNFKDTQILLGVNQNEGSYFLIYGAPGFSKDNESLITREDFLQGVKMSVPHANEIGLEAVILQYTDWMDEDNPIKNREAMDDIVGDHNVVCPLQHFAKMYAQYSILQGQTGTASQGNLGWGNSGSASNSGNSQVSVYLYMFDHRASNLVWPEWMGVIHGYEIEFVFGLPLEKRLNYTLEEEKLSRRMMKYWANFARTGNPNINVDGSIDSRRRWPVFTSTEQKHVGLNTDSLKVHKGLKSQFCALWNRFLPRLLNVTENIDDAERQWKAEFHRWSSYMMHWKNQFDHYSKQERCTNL

These recorded examples may help you get a feel for the data.
{"columns": ["item_smiles", "tgt", "experimental_result"],
 "data": [
  ["O=C(CSC(=S)N1CCN(C(=O)c2ccco2)CC1)Nc1c2ccccc2nc2ccccc12", "AChE (Electrophorus electricus) (Electrophorus electricus)", "68.60±1.57%"],
  ["O=C(CSC(=S)N1CCN(c2ccccc2)CC1)Nc1c2ccccc2nc2ccccc12", "AChE (Electrophorus electricus) (Electrophorus electricus)", "77.65±2.42%"],
  ["O=C(CSC(=S)N1CCN(CCO)CC1)Nc1c2ccccc2nc2ccccc12", "AChE (Electrophorus electricus) (Electrophorus electricus)", "48.67±1.51%"]
]}

Consider the additional compound presented here.
Fill blank: measured AChE (Electrophorus electricus) inhibitory activity (%) ± SD of the compound CN(C)CCCN1CCN(C(=S)SCC(=O)Nc2c3ccccc3nc3ccccc23)CC1 is ____.
79.95±1.78%

====

assay: MTT cell viability assay; assay type: cell-based, murine; settings: mouse, NIH3T3 murine embryonic fibroblast cells, 0.000316 µM to 1000 µM, read-out: IC50 against NIH3T3
measured_endpoint: IC50 at 24 h

Fill blank: measured IC50 at 24 h of the compound O=C(CSC(=S)N1CCN(Cc2ccc(C(F)(F)F)cc2)CC1)Nc1c2ccccc2nc2ccccc12 is ____.
> 1000 µM

====

target: human butyrylcholinesterase (BChE) (Homo sapiens)
Sequence (P06276 29-602): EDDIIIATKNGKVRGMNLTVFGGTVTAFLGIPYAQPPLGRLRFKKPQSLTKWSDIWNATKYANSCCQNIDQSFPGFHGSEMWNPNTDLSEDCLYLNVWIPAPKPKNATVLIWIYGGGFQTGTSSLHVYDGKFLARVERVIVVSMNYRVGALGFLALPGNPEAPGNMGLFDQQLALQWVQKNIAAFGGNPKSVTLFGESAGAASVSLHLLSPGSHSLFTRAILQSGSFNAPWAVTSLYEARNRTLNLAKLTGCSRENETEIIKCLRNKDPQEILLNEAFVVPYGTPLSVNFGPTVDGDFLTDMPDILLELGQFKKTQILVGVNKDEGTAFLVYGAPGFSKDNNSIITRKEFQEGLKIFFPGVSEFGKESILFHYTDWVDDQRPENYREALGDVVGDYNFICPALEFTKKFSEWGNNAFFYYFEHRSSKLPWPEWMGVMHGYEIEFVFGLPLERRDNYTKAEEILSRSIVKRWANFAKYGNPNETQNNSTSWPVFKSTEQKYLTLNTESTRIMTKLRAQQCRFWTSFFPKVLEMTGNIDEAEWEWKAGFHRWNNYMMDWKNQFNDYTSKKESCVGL
measured_endpoint: Ki
Kindly report the value followed by its unit.

Fill blank: measured Ki of the molecule O=C(CSC(=S)N1CCN(Cc2ccc(C(F)(F)F)cc2)CC1)Nc1c2ccccc2nc2ccccc12 [Compound 4n] is ____.
17.5 nM

====

Task for the reader: assign each of the following molecules its reported AChE (Human) inhibitory activity (%) ± SD.
biological target: AChE (Human) (Homo sapiens, UniProt P22303); construct: purchased Sigma-Aldrich (Steinheim, Germany); experiment: AChE inhibition, Ellman's method; assay type: biochemical; settings: 10^-4 M
Sequence (P22303 32-614): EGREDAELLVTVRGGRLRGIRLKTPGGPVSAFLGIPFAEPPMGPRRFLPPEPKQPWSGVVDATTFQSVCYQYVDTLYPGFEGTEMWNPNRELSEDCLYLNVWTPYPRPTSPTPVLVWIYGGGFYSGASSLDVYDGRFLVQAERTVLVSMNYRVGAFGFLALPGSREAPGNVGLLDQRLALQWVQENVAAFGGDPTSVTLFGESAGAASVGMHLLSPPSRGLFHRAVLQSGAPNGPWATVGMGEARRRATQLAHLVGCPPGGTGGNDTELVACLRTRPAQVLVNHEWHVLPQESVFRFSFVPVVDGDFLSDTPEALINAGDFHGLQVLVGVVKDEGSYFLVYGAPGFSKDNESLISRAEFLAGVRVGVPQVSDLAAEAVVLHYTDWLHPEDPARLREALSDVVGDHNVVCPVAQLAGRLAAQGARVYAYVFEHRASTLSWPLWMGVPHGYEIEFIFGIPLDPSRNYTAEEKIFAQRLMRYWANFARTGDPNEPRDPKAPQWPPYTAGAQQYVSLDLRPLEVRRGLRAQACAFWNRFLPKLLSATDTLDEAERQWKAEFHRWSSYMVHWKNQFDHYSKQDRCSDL
Kindly report the value followed by its unit.

These recorded examples may help you get a feel for the data.
{"columns": ["molecule", "experimental_result"],
 "data": [
  ["O=C(CSC(=S)N1CCN(CCO)CC1)Nc1c2ccccc2nc2ccccc12 [Compound 4e]", "10.13 ± 0.51%"],
  ["O=C(CSC(=S)N1CCC(Cc2ccccc2)CC1)Nc1c2ccccc2nc2ccccc12 [Compound 4u]", "30.71 ± 0.52%"],
  ["CC1CCCCN1C(=S)SCC(=O)Nc1c2ccccc2nc2ccccc12 (centres unmarked) [Compound 4t]", "14.51 ± 0.44%"],
  ["O=C(CSC(=S)N1CCN(Cc2ccccc2)CC1)Nc1c2ccccc2nc2ccccc12 [Compound 4k]", "7.21 ± 0.18%"],
  ["CN(C)CCN1CCN(C(=S)SCC(=O)Nc2c3ccccc3nc3ccccc23)CC1 [Compound 4a]", "18.15 ± 0.51%"]
]}

Go through the list and state AChE (Human) inhibitory activity (%) ± SD for each entry.
1. O=C(CSC(=S)N1CCN(c2ccc(F)cc2)CC1)Nc1c2ccccc2nc2ccccc12 [Compound 4p]
2. CCN1CCN(C(=S)SCC(=O)Nc2c3ccccc3nc3ccccc23)CC1 [Compound 4c]
3. O=C(CSC(=S)N1CCN(C2CCCCC2)CC1)Nc1c2ccccc2nc2ccccc12 [Compound 4l]
4. O=C(CSC(=S)N1CCN(C(c2ccccc2)c2ccccc2)CC1)Nc1c2ccccc2nc2ccccc12 [Compound 4m]
5. O=C(CSC(=S)N1CCN(c2ccccc2)CC1)Nc1c2ccccc2nc2ccccc12 [Compound 4f]
6. COc1ccc(N2CCN(C(=S)SCC(=O)Nc3c4ccccc4nc4ccccc34)CC2)cc1 [Compound 4h]
7. CN1CCN(C(=S)SCC(=O)Nc2c3ccccc3nc3ccccc23)CC1 [Compound 4g]

1: 49.51 ± 1.50%; 2: 10.28 ± 0.22%; 3: 7.29 ± 0.18%; 4: 27.38 ± 1.10%; 5: 8.71 ± 0.62%; 6: 18.39 ± 0.57%; 7: 11.30 ± 0.58%
